Data credit: ChEMBL document CHEMBL1201862

Consider the following compounds; for each one, report its GI50.
Tested on: HL-60
Assay: NCI tumour cell line growth inhibition, 48 h
Activity calls are given as the source filed them. No stated cut-off is given here; in the data, active = GI50 up to about 1.1 µM and inactive = higher.

Worked cases, answers included:
Exam item: Return GI50 for the following compound: CCOP(=O)(OCC)C(C#N)Cc1ccco1 (configuration not stated)
Marked response: > 10 µM (inactive)

Exam item: Tell me GI50 reported for N#CCCC1(CCC#N)S(=O)(=O)OCCOS1(=O)=O
Marked response: 23.3 µM (inactive)

Exam item: Give GI50 for the following compound: O=S(=O)(c1cc(Cl)ccc1Cl)n1ccnc1
Marked response: 28.4 µM (inactive)

Exam item: Determine its reported GI50: Oc1ccccc1/C=C/c1csnn1
Marked response: 39.4 µM (inactive)

Exam item: Assign GI50 to the following record: COc1ccc2c(c1)CCC1=C/C(=N\NC(N)=O)CCC12C (configuration not stated)
Marked response: 9.62 µM (inactive)

For the 3 compounds below, give their GI50 values.
1. COc1ccc([N+]2=NC(c3ccc([N+](=O)[O-])cc3)=NN(c3ccccc3)C2)cc1.[O-][Cl+3]([O-])([O-])[O-]
2. C/C=C/C=C\C1OC(O)([C@H](CC)C(=O)NC/C=C/C=C(\C)[C@H](OC)C(C)C2OC(\C=C/C=C/C=C(\C)C(=O)c3c(O)ccn(C)c3=O)[C@H](O)[C@@H]2O)C(O)C(O)C1(C)C (some centres not stated)
3. CC1=CCC([C@@](C)(O)CCCC(C)(C)N=C=S)CC1 (some centres not stated)

Marked response:
1. 22.3 µM (inactive)
2. 54.3 µM (inactive)
3. 21.8 µM (inactive)
